Molecular target: T1, QP271 (rhesus SIRPα1-flag-his T-557-28) (rhesus monkey)
T1 construct: also called rhesus monkey SIRPα (QP271); monkeySIRPα1-flag-his
T1 chain: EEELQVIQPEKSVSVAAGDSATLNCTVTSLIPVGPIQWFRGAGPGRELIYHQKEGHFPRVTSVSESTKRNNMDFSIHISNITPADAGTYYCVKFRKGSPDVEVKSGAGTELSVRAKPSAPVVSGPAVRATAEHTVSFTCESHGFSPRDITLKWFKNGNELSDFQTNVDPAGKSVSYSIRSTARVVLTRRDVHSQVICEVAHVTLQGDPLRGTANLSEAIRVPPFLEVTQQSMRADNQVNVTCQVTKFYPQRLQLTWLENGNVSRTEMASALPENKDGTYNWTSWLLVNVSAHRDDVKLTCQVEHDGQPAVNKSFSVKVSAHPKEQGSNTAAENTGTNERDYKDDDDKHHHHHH
Assay: binding ELISA, antigen coated
recorded metric: EC50 (ng/mL)
Express your answer in ng/mL, writing the number without its unit.

Some binders with known EC50 results, for comparison:
1. QP2561771 (antibody, human IgG4, V domains shown, Human IgG4 heavy constant region and kappa CL) VH: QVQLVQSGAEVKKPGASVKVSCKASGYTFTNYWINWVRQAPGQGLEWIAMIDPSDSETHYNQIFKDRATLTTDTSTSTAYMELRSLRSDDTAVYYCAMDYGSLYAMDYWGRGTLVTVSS VL: DIVLTQSPDSLAVSLGERATINCRASKSVSSSGYNWIFWYQQKPGQPPKLLIYLASNRDSGVPDRFSGSGSGTDFTLTISSLQAEDVAVYYCQESRELPTFGQGTKLEIK    1.13
2. QP2561589 (antibody, human IgG4, V domains shown, Human IgG4 heavy constant region and kappa CL) VH: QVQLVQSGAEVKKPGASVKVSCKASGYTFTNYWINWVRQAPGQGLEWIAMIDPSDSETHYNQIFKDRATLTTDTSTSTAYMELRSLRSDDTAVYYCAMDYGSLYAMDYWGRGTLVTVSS VL: DIVLTQSPDSLAVSLGERATINCRASKSVSSSGYNYIFWYQQKPGQPPKLLIYLASNLDSGVPDRFSGSGSGTDFTLTISSLQAEDVAVYYCQESWELPTFGQGTKLEIK    0.936

Now turn to the next binder.
Query: Data request, read-out EC50, for QP256279 (antibody, human IgG4, V domains shown, Human IgG4 heavy constant region and kappa CL) VH: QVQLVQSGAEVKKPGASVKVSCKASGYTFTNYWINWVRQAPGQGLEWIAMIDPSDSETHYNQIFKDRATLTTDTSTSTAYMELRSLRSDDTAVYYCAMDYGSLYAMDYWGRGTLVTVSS VL: DIVLTQSPDSLAVSLGERATINCRASQSVRSSGYNWIFWYQQKPGQPPKLLIYLASNRDSGVPDRFSGSGSGTDFTLTISSLQAEDVAVYYCQHSRELPTFGQGTKLEIK
Reply: 0.601
